# experiment: Human HepG2 cell viability assay in 384 well format
# Assay type: toxicity, cell-based
# Parameters: dose 125 nL, time 70.5 hour; concentration not given beside the values
# testParameters: HepG2 cells, read-out: Inhibition
measuredParameter: cytotoxicity at 70.5 h (%)
Answers are plain numbers, in %.

Below, each entry is followed by its recorded cytotoxicity at 70.5 h result.
compound=COCCn1/c(=N\C(=O)CN(C)S(C)(=O)=O)sc2cc(OC)ccc21 measuredparameter="cytotoxicity at 70.5 h" experimentalvalue=17.2
compound=Cc1ccc(C(=O)N2CC[C@H](Oc3cccnc3C)[C@@H](O)CC2)s1 measuredparameter="cytotoxicity at 70.5 h" experimentalvalue=4.2
compound="CC(CO)CNC(=O)c1cc2cccc(F)c2o1 (stereo not drawn)" measuredparameter="cytotoxicity at 70.5 h" experimentalvalue=-9.63

// for each compound in input: emit cytotoxicity at 70.5 h
1. COCC1CN(C(=O)[C@H]2CCCO2)Cc2nnn(CC3CC3)c21 (stereo partly drawn)
2. O=C(NCC(O)COc1ccc(C(F)(F)F)cc1)Nc1nncs1 (stereo not drawn)

1. -5.8
2. -12.1

I would be grateful if you could provide cytotoxicity at 70.5 h for each of the following entries.
1. Cc1ccc(N2CCC3(CCN(C(=O)c4ccccn4)CC3)CC2)nn1
2. COC(=O)C1CCN(C(=O)c2ccc(NS(C)(=O)=O)c(C)c2)CC1
3. Cc1ccc(Oc2ncccc2C(=O)N(C)CCCN(C)C)cc1

[-5.97, -9.09, 0.617]

Please give cytotoxicity at 70.5 h for each item listed below.
1. CS(=O)(=O)N1CC[C@]2(C[C@@H](Oc3ccccn3)CO2)C1
2. Cc1c(CN2CC[C@@H](N3CCC(O)CC3)[C@H](O)C2)[nH]c2ccc(F)cc12
3. O=C(Cc1csc(-c2ccco2)n1)N1CCN(c2nccs2)CC1
4. CC(C)(O)CN1CCN(C(=O)COCC(F)(F)F)CC1
5. Cn1ccnc1C1(O)CCN(C(=O)Cc2ccccc2)CC1
6. CN(C)C[C@@H]1CN(C(=O)Cc2ccccc2)C[C@@H]1CO
7. Cc1[nH]c2c(F)cccc2c1CC(=O)N1CCN(C2CCSCC2)CC1

1: -3.36; 2: -2.56; 3: -5.89; 4: 15.1; 5: -6.34; 6: -3.7; 7: -19.7

State recorded cytotoxicity at 70.5 h for all listed compounds.
1. CCNC(=O)NC(=O)CNC(C)(C)c1ccc2c(c1)OCCO2
2. Cc1cc(C)c(Cn2cncn2)cc1CN1CC[C@H](CO)[C@@H](O)C1

1: -5.69; 2: 6.21
